# Tested on: rodent lifetime carcinogenesis bioassay, tumor incidence TD50
# assay_comment: carcinogenic potency in animals, long-term in vivo studies, CPDB compilation (AID 1745844)
# condition_details: rat; strain Osborne-Mendel; females; in feed; site: any site (literature study); lesion: several types; types named in the paper; dosed 104 weeks; study length 104 weeks
Calls of active or inactive are those of the source. No rule for the calls is given here.
parameter_measured: TD50

Ask: Report TD50 for "CCN(Cc1cccc(S(=O)(=O)O)c1)c1ccc(C(=C2C=CC(=[N+](CC)Cc3cccc(S(=O)(=O)[O-])c3)C=C2)c2ccccc2)cc1" tested on rodent lifetime carcinogenesis bioassay, tumor incidence TD50.
Result: 97500 mg/kg/day

Ask: Find the measured TD50: item "CCN(Cc1cccc(S(=O)(=O)O)c1)c1ccc(C(=C2C=CC(=[N+](CC)Cc3cccc(S(=O)(=O)O)c3)C=C2)c2ccc(O)cc2S(=O)(=O)[O-])cc1" , target or system rodent lifetime carcinogenesis bioassay, tumor incidence TD50.
Result: 18500 mg/kg/day (inactive)

###

# System: rodent lifetime carcinogenesis bioassay, tumor incidence TD50
# assay_comment: carcinogenic potency in animals, long-term in vivo studies, CPDB compilation (AID 1745844)
# condition_details: rat; strain Sprague-Dawley; males; inhaled; site: extrahepatic tissue; lesion: angiosarcoma; dosed 52 weeks; study length 131 weeks
parameter_measured: TD50 (mg/kg/day)
// return numeric value only (unit: mg/kg/day, not printed)

Ask: # lookup: TD50 of "C=CCl"
Result: 14900

###

# System: rodent lifetime carcinogenesis bioassay, tumor incidence TD50
# assay_comment: carcinogenic potency in animals, long-term in vivo studies, CPDB compilation (AID 1745844)
# condition_details: rat; strain Fischer 344; males; in drinking water; site: kidney; lesion: renal-cell carcinoma; dosed 100 weeks; study length 100 weeks
parameter_measured: TD50 (mg/kg/day)
Give just the number in mg/kg/day; leave the unit off.

Ask: # get_value(readout= TD50, system= rodent lifetime carcinogenesis bioassay, tumor incidence TD50) for "[O-][Br+2]([O-])O"
Result: 62.2

###

# Tested on: rodent lifetime carcinogenesis bioassay, tumor incidence TD50
# assay_comment: carcinogenic potency in animals, long-term in vivo studies, CPDB compilation (AID 1745844)
# condition_details: mouse; strain CD-1 HaM/ICR; females; in feed; site: liver; lesion: several types; types named in the paper; dosed 77 weeks; study length 90 weeks
The source made the active and inactive calls. The rule behind the calls is not given here.
Give measured TD50 for each item. Keep answers brief.

Ask: Given the compound "Nc1ccc(Cc2ccc(N)c(Cl)c2)cc1Cl" , what is its reported TD50?
Result: 66.6 mg/kg/day

Ask: // TD50 lookup, key: "Cc1cccc(N)c1"
Result: 9990 mg/kg/day (inactive)

Ask: State the recorded TD50 for this entry: "Nc1ccccc1N"
Result: 507 mg/kg/day

Ask: Need TD50, item "Cc1ccc(N)cc1N"
Result: 180 mg/kg/day

###

# System: rodent lifetime carcinogenesis bioassay, tumor incidence TD50
# assay_comment: carcinogenic potency in animals, long-term in vivo studies, CPDB compilation (AID 1745844)
# condition_details: mouse; strain B6C3F1; females; in feed; site: ovary; lesion: mixed tumor, benign + tubular adenoma; dosed 103 weeks; study length 104 weeks
parameter_measured: TD50 (mg/kg/day)
# number only, unit mg/kg/day dropped from output

Ask: What does the record list as TD50 for "NC(=O)NN=Cc1ccc([N+](=O)[O-])o1" ?
Result: 29.8

###

What TD50 was measured for each of the following?
# System: rodent lifetime carcinogenesis bioassay, tumor incidence TD50
# assay_comment: carcinogenic potency in animals, long-term in vivo studies, CPDB compilation (AID 1745844)
# condition_details: mouse; strain B6C3F1; females; in feed; site: liver; lesion: hepatocellular adenoma + hepatocellular carcinoma + neoplastic nodule; dosed 108 weeks; study length 108 weeks
Answers without a unit are incomplete; give the number and then its unit.

Ask: Sample "CCN(CC)C(=S)SSC(=S)N(CC)CC" — what was its TD50?
Result: 120 mg/kg/day

Ask: What value of TD50 has been recorded for this entry: "CCN(CC)C(=S)S"
Result: 27000 mg/kg/day

###

# Tested on: rodent lifetime carcinogenesis bioassay, tumor incidence TD50
# assay_comment: carcinogenic potency in animals, long-term in vivo studies, CPDB compilation (AID 1745844)
# condition_details: rat; strain Fischer 344; males; by gavage; site: peritoneum; lesion: mesothelioma, NOS + mesothelioma, malignant; dosed 103 weeks; study length 103 weeks
parameter_measured: TD50 (mg/kg/day)
Quick reminder: number only, in mg/kg/day, skip the unit.

Ask: For the compound "ClC=C(Cl)Cl" , what TD50 is on record?
Result: 1490

###

# System: rodent lifetime carcinogenesis bioassay, tumor incidence TD50
# assay_comment: carcinogenic potency in animals, long-term in vivo studies, CPDB compilation (AID 1745844)
# condition_details: rat; strain Fischer 344; females; inhaled; site: mammary gland; lesion: adenoma, NOS + fibroadenoma; dosed 102 weeks; study length 104 weeks
parameter_measured: TD50

Ask: I have this molecule here, "ClCCl" , and I need its recorded TD50.
Result: 598 mg/kg/day

###

# System: rodent lifetime carcinogenesis bioassay, tumor incidence TD50
# assay_comment: carcinogenic potency in animals, long-term in vivo studies, CPDB compilation (AID 1745844)
# condition_details: rat; strain ACI; males; in feed; site: urinary bladder; lesion: transitional-cell carcinoma; dosed 52 weeks; study length 52 weeks
parameter_measured: TD50

Ask: Return reported TD50; argument: "O=C1NS(=O)(=O)c2ccccc21"
Result: 3710 mg/kg/day

###

Please provide measured TD50 for the entries that follow.
# System: rodent lifetime carcinogenesis bioassay, tumor incidence TD50
# assay_comment: carcinogenic potency in animals, long-term in vivo studies, CPDB compilation (AID 1745844)
# condition_details: mouse; strain CD-1 HaM/ICR; males; in feed; site: liver; lesion: several types; types named in the paper; dosed 77 weeks; study length 90 weeks
Calls of active or inactive are those of the source. How the calls were made is not given here.

Ask: May I ask what TD50 has been recorded for "Cc1cccc(N)c1" ?
Result: 6770 mg/kg/day

Ask: // returns reported TD50 for input "Cc1ccc(N)c(C)c1"
Result: 65.4 mg/kg/day (inactive)

Ask: Using the record for "Cc1ccc(N)cc1N" , report its TD50.
Result: 191 mg/kg/day

Ask: Using the record for "COc1ccc(OC)c(/C=C/c2ccc(N)cc2)c1" , report its TD50.
Result: 329 mg/kg/day

###

# System: rodent lifetime carcinogenesis bioassay, tumor incidence TD50
# assay_comment: carcinogenic potency in animals, long-term in vivo studies, CPDB compilation (AID 1745844)
# condition_details: rat; strain Alpk:APfSD; males; in feed; site: testis; lesion: Leydig-cell adenoma; dosed 104 weeks; study length 104 weeks
parameter_measured: TD50

Ask: Could you tell me which TD50 is on file for "COC(=O)C(C)(C)Oc1ccc(-c2ccc(Cl)cc2)cc1" ?
Result: 2.93 mg/kg/day

###

# Tested on: rodent lifetime carcinogenesis bioassay, tumor incidence TD50
# assay_comment: carcinogenic potency in animals, long-term in vivo studies, CPDB compilation (AID 1745844)
# condition_details: rat; strain Charles River CD (Sprague-Dawley); males; inhaled; site: nasal cavity; lesion: adenoma; dosed 104 weeks; study length 104 weeks
parameter_measured: TD50

Ask: Form field: reported TD50 of "ClCC=CCCl"
Result: 0.313 mg/kg/day

###

# System: rodent lifetime carcinogenesis bioassay, tumor incidence TD50
# assay_comment: carcinogenic potency in animals, long-term in vivo studies, CPDB compilation (AID 1745844)
# condition_details: rat; strain Fischer 344; females; in feed; site: urinary bladder; lesion: transitional-cell carcinoma; dosed 66 weeks; study length 66 weeks
parameter_measured: TD50 (mg/kg/day)
Note: unit mg/kg/day is implicit; provide only the numeric part.

Ask: Dear colleague, I am looking for the recorded TD50 of the following molecule: "Nc1c(Br)cc(Br)c2c1C(=O)c1ccccc1C2=O"
Result: 4830

###

# Tested on: rodent lifetime carcinogenesis bioassay, tumor incidence TD50
# assay_comment: carcinogenic potency in animals, long-term in vivo studies, CPDB compilation (AID 1745844)
# condition_details: rat; strain Fischer 344; males; inhaled; site: liver; lesion: hepatocellular adenoma; dosed 103 weeks; study length 104 weeks
Please provide measured TD50 for the entries that follow.
Give a bare numeral; the unit mg/kg/day is implied.

Ask: Please report the recorded TD50 for "FC(F)=C(F)F" .
Result: 136

Ask: Which TD50 value belongs to "CC#N" ?
Result: 156

###

# Tested on: rodent lifetime carcinogenesis bioassay, tumor incidence TD50
# assay_comment: carcinogenic potency in animals, long-term in vivo studies, CPDB compilation (AID 1745844)
# condition_details: mouse; strain B6C3F1; males; in feed; site: all sites; lesion: hemangiosarcoma; dosed 99 weeks; study length 99 weeks
parameter_measured: TD50

Ask: Query (compound): "Cc1cc(Cl)ccc1N" ; field requested: TD50
Result: 911 mg/kg/day

###

# Test system: rodent lifetime carcinogenesis bioassay, tumor incidence TD50
# assay_comment: carcinogenic potency in animals, long-term in vivo studies, CPDB compilation (AID 1745844)
# condition_details: mouse; strain ICR; both sexes; in drinking water; site: mammary gland; lesion: several types; types named in the paper; dosed 57 weeks; study length 57 weeks
parameter_measured: TD50

Ask: Requested read-out: TD50. Entry: "Nc1ccc(N=Nc2ccc(-c3ccc(N=Nc4c(S(=O)(=O)O)cc5cc(S(=O)(=O)O)c(N=Nc6ccccc6)c(O)c5c4N)cc3)cc2)c(N)c1"
Result: 262 mg/kg/day
